Data credit: patent US10479780B2

- test.target: human Src enzyme (Homo sapiens, UniProt P12931)
- Construct: purchased Carna Biosciences, Inc. 08-173
- Sequence (P12931 whole entry): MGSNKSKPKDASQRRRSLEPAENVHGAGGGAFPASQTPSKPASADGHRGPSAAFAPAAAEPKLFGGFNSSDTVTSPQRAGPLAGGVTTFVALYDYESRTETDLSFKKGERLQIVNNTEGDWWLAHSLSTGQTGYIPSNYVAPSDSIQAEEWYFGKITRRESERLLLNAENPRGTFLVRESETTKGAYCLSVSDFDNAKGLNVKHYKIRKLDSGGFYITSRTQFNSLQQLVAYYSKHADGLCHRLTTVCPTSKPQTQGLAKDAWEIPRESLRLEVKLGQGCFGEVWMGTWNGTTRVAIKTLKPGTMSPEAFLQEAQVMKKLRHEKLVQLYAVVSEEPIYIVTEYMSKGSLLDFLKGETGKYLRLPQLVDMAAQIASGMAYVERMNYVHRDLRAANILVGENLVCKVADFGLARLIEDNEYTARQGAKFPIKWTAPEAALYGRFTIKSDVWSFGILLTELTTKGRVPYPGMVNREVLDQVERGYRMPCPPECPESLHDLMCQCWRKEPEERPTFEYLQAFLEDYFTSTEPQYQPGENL
- assay.overview: Src enzyme inhibitory activity (time-resolved fluorometry, biotinylated peptide phosphorylation)
- Assay type: biochemical
- measurement.conditions: biotinylated peptide phosphorylation, read-out: SRC_IC50
measured.quantity: IC50 (nM)

Worked examples follow.
{"compound": "Cc1cc(Oc2ccc(F)cc2)ncc1-n1ncc(C(=O)c2cc3cc(Cl)c(NS(C)(=O)=O)cc3[nH]2)c1N [Example 4-2-092]", "unit.tag": "nM", "IC50": 270}
{"compound": "Cc1cc(Oc2cccc(F)c2F)cc(F)c1-n1ncc(C(=O)c2cc3cc(NS(C)(=O)=O)c(Cl)cc3[nH]2)c1N [Example 4-2-094]", "unit.tag": "nM", "IC50": 33}

(A) Cc1cc(Oc2c(F)cccc2Cl)ncc1-n1ncc(C(=O)c2cc3cc(F)c(NS(=O)(=O)CCCF)cc3[nH]2)c1N [Example 4-2-024]
(B) CONS(=O)(=O)Nc1cc2[nH]c(C(=O)c3cnn(-c4ccc(Oc5ccccc5F)cc4C)c3N)cc2cc1F [Example 4-5-009]
Input: Parameter metric = IC50. Return the lower-valued option from A and B . To answer, give the label that identifies your chosen option.
Output: B
